- target: MAPK10 (human) (UniProt P53779)
- Sequence (P53779 whole entry, looked up): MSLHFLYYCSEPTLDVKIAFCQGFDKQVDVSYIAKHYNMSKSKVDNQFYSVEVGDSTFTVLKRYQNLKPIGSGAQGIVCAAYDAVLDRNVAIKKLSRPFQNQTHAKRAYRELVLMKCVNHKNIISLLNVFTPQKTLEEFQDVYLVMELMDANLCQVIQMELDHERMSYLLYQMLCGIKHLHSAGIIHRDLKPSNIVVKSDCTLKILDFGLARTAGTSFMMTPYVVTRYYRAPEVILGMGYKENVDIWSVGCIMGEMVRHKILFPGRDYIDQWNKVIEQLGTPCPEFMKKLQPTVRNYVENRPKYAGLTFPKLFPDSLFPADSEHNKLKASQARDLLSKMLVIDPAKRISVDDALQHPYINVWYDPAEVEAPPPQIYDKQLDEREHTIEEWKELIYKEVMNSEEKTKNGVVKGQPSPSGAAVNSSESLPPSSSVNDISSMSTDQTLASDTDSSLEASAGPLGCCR
- assayName: radiometric filter-binding kinase assay
- testContext: compound 1.0 µM

>  <compound>
CC(C)(C#N)c1ccc(N2C(=O)OCc3cnc4ccc(-c5cnc6ccccc6c5)cc4c32)cc1

>  <residual activity (%)>
87

$$$$
>  <compound>
Cc1ccc(-c2ccc3c(ccc4sc5c(c43)NC[C@@H](C)NC5=O)n2)cn1

>  <residual activity (%)>
104

$$$$
>  <compound>
Cc1nc(-c2ccc(OCC(C)C)c(C#N)c2)sc1C(=O)O

>  <residual activity (%)>
99

$$$$
>  <compound>
O=C(NOCC(O)CO)c1ccc(F)c(F)c1Nc1ccc(I)cc1Cl (stereo not drawn)

>  <residual activity (%)>
83

$$$$
>  <compound>
Cc1cccc(Nc2nn(C)c3ncnc(N)c23)c1

>  <residual activity (%)>
101

$$$$
>  <compound>
O=C(NCCCNc1nc(Nc2cccc(CN3CCOCC3)c2)ncc1C1CC1)C1CCC1

>  <residual activity (%)>
97

$$$$
>  <compound>
Oc1ccc(/C=C/c2cc(O)cc(O)c2)cc1

>  <residual activity (%)>
80

$$$$
>  <compound>
NC(=O)c1c(NC(=O)C2CC2)sc2c1CCCC2

>  <residual activity (%)>
94

$$$$
>  <compound>
CN1C(=O)[C@@H](Cc2c[nH]c3ccccc23)NC1=S

>  <residual activity (%)>
99

$$$$
>  <compound>
O=c1c(O)c(-c2ccc(O)c(O)c2)oc2cc(O)c(O)c(O)c12

>  <residual activity (%)>
107

$$$$
>  <compound>
CCCC(CCC)C(=O)O

>  <residual activity (%)>
88

$$$$
>  <compound>
Nc1cccc2c1CN(C1CCC(=O)NC1=O)C2=O (stereo not drawn)

>  <residual activity (%)>
90

$$$$
>  <compound>
c1ccc2c(-c3cnn4cc(-c5ccc(N6CCNCC6)cc5)cnc34)ccnc2c1

>  <residual activity (%)>
97

$$$$
>  <compound>
Cn1nc(Nc2ccc(F)cc2)c2c(N)ncnc21

>  <residual activity (%)>
104

$$$$
>  <compound>
C=C1C(=O)OC2C1CC/C(C)=C/CCC1(C)OC21 (stereo not drawn)

>  <residual activity (%)>
115

$$$$
>  <compound>
NCC(=O)Nc1ccc(-n2nc(C(F)(F)F)cc2-c2ccc3c(ccc4ccccc43)c2)cc1

>  <residual activity (%)>
85

$$$$
>  <compound>
Cc1cccc(-c2nn(C(=S)Nc3ccccc3)cc2-c2ccnc3ccccc23)n1

>  <residual activity (%)>
99

$$$$
>  <compound>
NC(=O)c1ccc(-c2ccc(Oc3cncc4sc(-c5nn[nH]n5)cc34)cc2)cc1

>  <residual activity (%)>
105

$$$$
>  <compound>
Cc1ccc(=O)n(-c2ccccc2)c1

>  <residual activity (%)>
83

$$$$
>  <compound>
O=C(N[C@@H](COc1ccc2[nH]c(=O)[nH]c2c1)c1ccccc1)c1cccn(Cc2ccc(F)c(F)c2)c1=O

>  <residual activity (%)>
90

$$$$
>  <compound>
O=C(Nc1nc2cc(C(F)(F)F)cc(NC3CC3)n2n1)c1cccnc1

>  <residual activity (%)>
79

$$$$
>  <compound>
COc1cc(C(=O)N2CCOCC2)c(F)cc1Nc1ncc(C(F)(F)F)c(NC2CC2)n1

>  <residual activity (%)>
80

$$$$
>  <compound>
Cc1ccc(Sc2cnc(Nc3cccc(Br)n3)s2)cc1C(=O)N1CCN(C(=O)CN)CC1

>  <residual activity (%)>
107

$$$$

====

- target: UniProtKB P28482
- Sequence (P28482 whole entry, looked up): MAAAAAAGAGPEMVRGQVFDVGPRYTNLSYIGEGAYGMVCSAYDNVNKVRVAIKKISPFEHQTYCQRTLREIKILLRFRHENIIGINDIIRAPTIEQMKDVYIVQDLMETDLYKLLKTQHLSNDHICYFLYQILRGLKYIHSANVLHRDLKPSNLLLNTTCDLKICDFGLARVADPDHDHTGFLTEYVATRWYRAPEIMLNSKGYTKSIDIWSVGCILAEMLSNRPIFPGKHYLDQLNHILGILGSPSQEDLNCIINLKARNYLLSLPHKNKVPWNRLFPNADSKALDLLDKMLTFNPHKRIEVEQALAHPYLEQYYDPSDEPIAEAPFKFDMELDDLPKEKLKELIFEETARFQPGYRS
- assayName: radiometric filter-binding kinase assay
- testContext: compound 1.0 µM
readoutName: residual activity (%)

>  <molecule>
COc1cc2ncn(-c3cc(OCc4ccccc4S(C)(=O)=O)c(C#N)s3)c2cc1OC

>  <measuredNumber>
104

$$$$
>  <molecule>
CN(C)C/C=C/C(=O)Nc1cccc(C(=O)Nc2ccc(Nc3nccc(-c4cccnc4)n3)cc2)c1

>  <measuredNumber>
114

$$$$
>  <molecule>
COc1ccc(-n2ncc3cnc(Nc4cc(OC)c(OC)c(OCCCN5CCN(C)CC5)c4)nc32)cc1

>  <measuredNumber>
57

$$$$
>  <molecule>
Cc1cc(NC(=O)c2cccc(NC(=O)/C=C/CN(C)C)c2)ccc1Nc1nccc(-c2cccnc2)n1

>  <measuredNumber>
100

$$$$
>  <molecule>
CCc1cncnc1N1CCN(Cc2nc3cc(C(F)(F)F)ccc3[nH]2)CC1

>  <measuredNumber>
85

$$$$
>  <molecule>
C[C@H]1CCCC(=O)CCC/C=C/c2cc(O)cc(O)c2C(=O)O1

>  <measuredNumber>
98

$$$$
>  <molecule>
NC(=O)c1c(NC(=O)C2CC2)sc2c1CCCC2

>  <measuredNumber>
99

$$$$
>  <molecule>
C=C1C(=O)OC2C1CC/C(C)=C/CCC1(C)OC21 (centres undefined)

>  <measuredNumber>
90

$$$$
>  <molecule>
C=CC(=O)N1CCC[C@@H](n2nc(-c3ccc(Oc4ccccc4)cc3)c3c(N)ncnc32)C1

>  <measuredNumber>
99

$$$$
>  <molecule>
Cn1nc(Nc2ccc(F)cc2)c2c(N)ncnc21

>  <measuredNumber>
107

$$$$
>  <molecule>
Cc1cc(SCc2sc(-c3ccc(C(F)(F)F)cc3)nc2C)ccc1OCC(=O)O

>  <measuredNumber>
100

$$$$
>  <molecule>
O=C1Nc2nc(-c3c(O)cccc3OCC3CC3)cc(C3CCCNC3)c2CO1 (centres undefined)

>  <measuredNumber>
81

$$$$
>  <molecule>
CCCC(CCC)C(=O)O

>  <measuredNumber>
98

$$$$
>  <molecule>
O=C(NOCC(O)CO)c1ccc(F)c(F)c1Nc1ccc(I)cc1Cl (centres undefined)

>  <measuredNumber>
83

$$$$
>  <molecule>
Cc1ccc(Sc2cnc(Nc3cccc(Br)n3)s2)cc1C(=O)N1CCN(C(=O)CN)CC1

>  <measuredNumber>
103

$$$$
>  <molecule>
Cn1c(=O)c2c(ncn2C)n(C)c1=O

>  <measuredNumber>
101

$$$$
>  <molecule>
O=C(NOC[C@H](O)CO)c1ccc(F)c(F)c1Nc1ccc(I)cc1Cl

>  <measuredNumber>
90

$$$$
>  <molecule>
COc1ccc2c(c1)c1c3c(c4c5ccccc5n(C)c4c1n2CC(O)CN(C)C)C(=O)NC3=O (centres undefined)

>  <measuredNumber>
110

$$$$
>  <molecule>
Cc1ccc(=O)n(-c2ccccc2)c1

>  <measuredNumber>
95

$$$$

====

- target: UniProt Q15418
- Sequence (Q15418 whole entry, looked up): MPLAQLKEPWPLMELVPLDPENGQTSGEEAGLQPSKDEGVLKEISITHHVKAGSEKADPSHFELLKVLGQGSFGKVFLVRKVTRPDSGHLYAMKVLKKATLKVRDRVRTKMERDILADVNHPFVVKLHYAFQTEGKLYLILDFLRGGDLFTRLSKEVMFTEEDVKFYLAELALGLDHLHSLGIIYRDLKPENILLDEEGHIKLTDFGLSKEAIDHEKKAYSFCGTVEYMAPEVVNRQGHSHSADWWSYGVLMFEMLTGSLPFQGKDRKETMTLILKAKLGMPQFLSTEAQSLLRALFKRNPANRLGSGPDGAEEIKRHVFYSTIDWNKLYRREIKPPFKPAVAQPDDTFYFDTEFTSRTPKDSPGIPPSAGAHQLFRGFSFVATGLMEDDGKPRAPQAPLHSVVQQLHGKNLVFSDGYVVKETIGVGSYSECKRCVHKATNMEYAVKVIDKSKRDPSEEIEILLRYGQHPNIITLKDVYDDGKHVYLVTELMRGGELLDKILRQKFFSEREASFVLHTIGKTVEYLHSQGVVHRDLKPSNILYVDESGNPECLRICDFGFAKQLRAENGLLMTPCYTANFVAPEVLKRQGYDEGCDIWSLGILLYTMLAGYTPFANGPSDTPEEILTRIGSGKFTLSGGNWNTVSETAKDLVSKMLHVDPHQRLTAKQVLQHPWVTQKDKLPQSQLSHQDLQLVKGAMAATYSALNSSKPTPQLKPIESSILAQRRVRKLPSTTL
- assayName: radiometric filter-binding kinase assay
- testContext: compound 1.0 µM
readoutName: residual activity (%)

>  <compound>
CN1C(=O)[C@@H](Cc2c[nH]c3ccccc23)NC1=S

>  <target>
UniProt Q15418

>  <measuredNumber>
80

$$$$
>  <compound>
CCCC(CCC)C(=O)O

>  <target>
UniProt Q15418

>  <measuredNumber>
99

$$$$
>  <compound>
Cc1ccc(-c2ccc3c(ccc4sc5c(c43)NC[C@@H](C)NC5=O)n2)cn1

>  <target>
UniProt Q15418

>  <measuredNumber>
100

$$$$
>  <compound>
O=C(NOC[C@H](O)CO)c1ccc(F)c(F)c1Nc1ccc(I)cc1Cl

>  <target>
UniProt Q15418

>  <measuredNumber>
102

$$$$
>  <compound>
COc1cc(O)c2c(c1)/C=C/C[C@H](O)[C@H](O)C(=O)/C=C\C[C@H](C)OC2=O

>  <target>
UniProt Q15418

>  <measuredNumber>
90

$$$$
>  <compound>
NS(=O)(=O)OC[C@@H]1C[C@@H](n2ccc3c(N[C@H]4CCc5ccccc54)ncnc32)C[C@@H]1O

>  <target>
UniProt Q15418

>  <measuredNumber>
96

$$$$
>  <compound>
COc1cc(O)c2c(c1)[C@H]1OC1C[C@H](O)[C@H](O)C(=O)/C=C\C[C@H](C)OC2=O (some centres not stated)

>  <target>
UniProt Q15418

>  <measuredNumber>
85

$$$$
>  <compound>
Oc1ccc2ccccc2c1SSc1c(O)ccc2ccccc12

>  <target>
UniProt Q15418

>  <measuredNumber>
78

$$$$
>  <compound>
O=C(O)c1ccc(-c2c[nH]c3ncc(-c4ccccc4)cc23)cc1C1CCCC1

>  <target>
UniProt Q15418

>  <measuredNumber>
93

$$$$
>  <compound>
NC(=O)c1ccc(-c2ccc(Oc3cncc4sc(-c5nn[nH]n5)cc34)cc2)cc1

>  <target>
UniProt Q15418

>  <measuredNumber>
88

$$$$
>  <compound>
Cc1nc(-c2ccc(OCC(C)C)c(C#N)c2)sc1C(=O)O

>  <target>
UniProt Q15418

>  <measuredNumber>
92

$$$$
>  <compound>
Nc1cccc2c1CN(C1CCC(=O)NC1=O)C2=O (configuration not stated)

>  <target>
UniProt Q15418

>  <measuredNumber>
98

$$$$
